- assayed system: Recombinant haemagglutinin HA1 domain (18-344) (A/California/06/09) H1N1 (Influenza A virus A/California/06/09 (H1N1))
- experiment: SPR, single cycle kinetics, HA1 domain immobilised
parameter measured: pKd
Interpret pKd as the negative base-10 log of the concentration measured in mol/L.

binder: R2a-G8 (VHH) VHH: QLQLAESGGGLVQAGGSLRLSCAASGSTLNNNAIGWFRQAPGKEREGVSCMNSRDGTTNYADSVKGRFTISRDVAKNTVYLQMNSLKPEDTAVYFCAVKGFAPFLIGCPWGKAEYDYWGQGTQVTVSS
pKd: 8.11
//
binder: R1a-F5 (VHH) VHH: QLQLVESGGGLVQVGGSLRLSCAASGFPFDGYAIAWFRQAPGKEREGVSCRASDGNTYYAESLKGRLTMSTDNAKNTVYLQMNSLKPEDTAVYYCAAASWVASLWSPSEYDYWGQGTQVTVSS
pKd: 8.21
//
binder: R2a-F9 (VHH) VHH: QVQLVESGGGLVQPGGSLRLSCSASGSISSIVTMGWYRQAPGKERELVAVIGNYGNTNYADSVKGRFTVSRDNAKNTVYLQMNSLNVEDTAMYVCKFSSTVAPHEYWGQGTQVTVSS
pKd: 7.10

Okay, now this binder:
Q) Need pKd, item R2a-G9 (VHH) VHH: QVQLVESGGGLVQPGGSLRLSCAASDNIFSFYTMGWYRQSPGKERELVAVIGNGGNTNYADSVKGRFTISRDNGKNKAHLQMNSLKPEDTAVYYCKASGPGGVEVWGQGTQVTVSS
A) 7.16
